Target: human MRGPR X4 (Homo sapiens)
Construct: expressed in transfected cells
Sequence (Q96LA9 whole entry): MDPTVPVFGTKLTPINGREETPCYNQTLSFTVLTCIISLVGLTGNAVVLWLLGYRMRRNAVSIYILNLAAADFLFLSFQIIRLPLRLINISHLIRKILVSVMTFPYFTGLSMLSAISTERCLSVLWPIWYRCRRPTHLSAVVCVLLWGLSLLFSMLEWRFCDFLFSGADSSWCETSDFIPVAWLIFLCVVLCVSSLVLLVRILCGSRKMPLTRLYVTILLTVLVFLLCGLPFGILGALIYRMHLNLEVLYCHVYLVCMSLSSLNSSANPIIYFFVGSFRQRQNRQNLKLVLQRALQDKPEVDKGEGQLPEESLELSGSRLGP
Assay: MRGPR X4 antagonist activity, IP-One Gq HTRF assay in stably transfected HEK cells
Type: cell-based
Conditions: versus 20 μM deoxycholic acid agonist; HEK cells expressing human MRGPR X4; read-out: MRGPRX4 Antagonist Activity
pIC50: −log10 of the molar value.
Reported pIC50 values are given for each entry in this list.

- test.smiles: "COc1ccccc1NC(=O)CS(=O)(=O)c1cn(Cc2ccc(Cl)cc2)c2ccccc12"
  pIC50: "5.60 to 6.00"
- test.smiles: "COc1ccc(C(=O)Cn2nc(C(=O)NCCc3nnc4ccccn34)c3ccccc32)cc1"
  pIC50: "5.60 to 6.00"
- test.smiles: "O=S(=O)(NCCc1ccc(Cl)c(F)c1)c1cn(Cc2ccc(Cl)cc2)c2ccccc12"
  pIC50: "5.60 to 6.00"
- test.smiles: "O=C(NCCc1nnc2ccccn12)c1nn(Cc2cc(-c3ccc4c(c3)OCO4)no2)c2ccccc12"
  pIC50: "5.60 to 6.00"
- test.smiles: "O=C(NS(=O)(=O)c1cccc(C(F)(F)F)c1)c1nn(Cc2ccc(OC(F)F)cc2)c2ccccc12"
  pIC50: "6.00 to 6.30"
- test.smiles: "COc1ccccc1CCCn1nc(C(=O)NCCc2nnc3ccccn23)c2ccccc21"
  pIC50: "< 5.60"
- test.smiles: "O=C(CS(=O)(=O)c1cn(Cc2ccc(Cl)cc2)c2ccccc12)Nc1ccccc1Cl"
  pIC50: "6.00 to 6.30"
- test.smiles: "O=C(CCc1cccnc1)Nc1nn(Cc2ccc(Cl)cc2)c2ccccc12"
  pIC50: "5.60 to 6.00"
- test.smiles: "O=C(NS(=O)(=O)c1cccc(F)c1)c1nn(Cc2ccc(OC(F)F)cc2)c2ccccc12"
  pIC50: "6.00 to 6.30"
- test.smiles: "Cc1cc(C)cc(S(=O)(=O)NC(=O)c2nn(Cc3ccc(OC(F)F)cc3)c3ccccc23)c1"
  pIC50: "6.00 to 6.30"
- test.smiles: "Cc1ccccc1NC(=O)CS(=O)(=O)c1cn(Cc2ccc(Cl)cc2)c2ccccc12"
  pIC50: "< 5.60"
- test.smiles: "COc1cccc(CS(=O)(=O)NC(=O)c2nn(Cc3ccc(Cl)cc3)c3ccccc23)c1"
  pIC50: "< 5.60"
- test.smiles: "O=C(NCCc1nnc2ccccn12)c1nn(CCc2ccc(F)cc2F)c2ccccc12"
  pIC50: "< 5.60"
- test.smiles: "COc1ccc(S(=O)(=O)NC(=O)c2nn(Cc3ccc(OC(F)F)cc3)c3ccccc23)cc1"
  pIC50: "5.60 to 6.00"
- test.smiles: "COc1ccc(C)c(S(=O)(=O)NC(=O)c2nn(Cc3cccc(F)c3)c3ccccc23)c1"
  pIC50: "< 5.60"
- test.smiles: "O=C(NS(=O)(=O)c1ccccn1)c1nn(Cc2ccc(Cl)cc2)c2ccccc12"
  pIC50: "5.60 to 6.00"

Source: patent US20240254089A1
